tested on: RRV; experiment: microbe, parasite or virus in culture; type: cell-based; conditions: Ross River virus, HeLa Kyoto, read-out: IC50 RRV
Structures can show the parent of a compound that is named as a salt.
I'd appreciate it if you could supply pIC50 values for the items below.
Give bare numbers, as −log10 of the molar value.

Some molecules with known pIC50 results, for comparison:
[
  {
    "MOLECULE": "O=C(Nc1ccc([N+](=O)[O-])cc1Cl)c1cc(Cl)ccc1O [Niclosamide]",
    "TARGET_UNDER_TEST": "RRV",
    "pIC50": 6.09
  },
  {
    "MOLECULE": "CC[C@@]1([C@@H]2O[C@@H]([C@H]3O[C@@](O)(CO)[C@H](C)C[C@@H]3C)C[C@@H]2C)CC[C@H]([C@]2(C)CC[C@]3(C[C@H](O)[C@@H](C)[C@@H]([C@@H](C)[C@@H](OC)[C@H](C)C(=O)O)O3)O2)O1 [Monensin, Monensin sodium salt]",
    "TARGET_UNDER_TEST": "RRV",
    "pIC50": 5.34
  },
  {
    "MOLECULE": "CCN(CC)Cc1cc(Nc2ccnc3cc(Cl)ccc23)ccc1O [Amodiaquine, Amodiaquine dihydrochloride dihydrate]",
    "TARGET_UNDER_TEST": "RRV",
    "pIC50": 5.21
  },
  {
    "MOLECULE": "CC(C)COCC(CN(Cc1ccccc1)c1ccccc1)N1CCCC1 (stereo not shown) [Bepridil, Bepridil hydrochloride]",
    "TARGET_UNDER_TEST": "RRV",
    "pIC50": 5.34
  },
  {
    "MOLECULE": "C=C1C(=O)O[C@H]2[C@H]1CC/C(C)=C/CC[C@@]1(C)O[C@@H]21 [Parthenolide]",
    "TARGET_UNDER_TEST": "RRV",
    "pIC50": 5.11
  },
  {
    "MOLECULE": "O=C1c2c(O)ccc(O)c2C(=O)c2c(NCCNCCO)ccc(NCCNCCO)c21 [Mitoxantrone, Mitoxantrone dihydrochloride]",
    "TARGET_UNDER_TEST": "RRV",
    "pIC50": 5.31
  }
]

Next molecule, pIC50 to be filled in.
query: Need pIC50 of CNc1ccc2oc(C[C@H]3O[C@@]4(CC[C@H]3C)O[C@H]([C@H](C)C(=O)c3ccc[nH]3)[C@H](C)C[C@H]4C)nc2c1C(=O)O , thanks.
result: 5.19
